# Test system: NIH3T3
# PROTOCOL TEXT: Antifibrotic activity against TGFbeta-1 induced mouse NIH3T3 cells assessed as decrease in COL1A1 mRNA expression at 1 uM incubated for 24 hrs by qRT-PCR analysis relative to control
# Type: functional
# Parameters: scale not given: the % may be the effect or the level left
Classify by measured Activity: true if it is equal to or exceeds 50%, false if it is smaller.

Check out these entries, answers already filled in.
Given the entry `CC(=O)OC[C@H](CCCCNC(=O)c1cccc(O)c1O)NC(=O)c1cccc(O)c1O` , answer whether its Activity meets or surpasses 50%.
true

Okay, and `O=C(NCCCC[C@@H](CO)NC(=O)c1cccc(O)c1O)c1cccc(O)c1O` ?
false

Okay, and `O=C(Cc1ccccc1)OC[C@H](CCCCNC(=O)c1cccc(O)c1O)NC(=O)c1cccc(O)c1O` ?
true

Okay, and `O=C(Cc1ccccc1)OC[C@H](CCCCNC(=O)c1cccc(O)c1O)NC(=O)c1cccnc1` ?
false

Okay, and `O=C(Cc1ccc(O)cc1)OC[C@H](CCCCNC(=O)c1cccc(O)c1O)NC(=O)c1cccc(O)c1O` ?
false

Next:
Given the entry `CCC(=O)OC[C@H](CCCCNC(=O)c1cccc(O)c1O)NC(=O)c1cccc(O)c1O` , answer whether its Activity meets or surpasses 50%.
false

Okay, and `CC(C)C(=O)OC[C@H](CCCCNC(=O)c1cccc(O)c1O)NC(=O)c1cccc(O)c1O` ?
false
